# Measurement target: T1, AtMBD6 MBD domain WT (Arabidopsis thaliana, UniProt Q9LTJ1 78-140)
# T1 sequence: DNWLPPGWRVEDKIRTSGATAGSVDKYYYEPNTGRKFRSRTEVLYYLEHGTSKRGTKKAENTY
# Assay procedure: NMR titration (1H-15N HSQC); 20 mM Na phosphate pH 6.5, 150 mM NaCl, 20 C; two-state fit; NMR: 20 mM Na phosphate pH 6.5, 150 mM NaCl, 5% D2O, 20 C; EMSA: 25 mM Tris, 25 mM boric acid, 150 mM NaCl, 5% glycerol, 1 mM DTT, 4 C, 30 min
# Applied conditions: protein: recombinant; tags: GST removed by HRV3C; N-terminal GPLGS remains; blunt; self-complementary
Reported property: pKd
One number for each entry, as −log10 of the molar value.

[in] Quick one: give measured pKd for MG (dsDNA, 5-methylcytosine at position 7 of both strands (symmetric methyl-CpG)) DNA 1: GGTATGCGCATACC DNA 2: GGTATGCGCATACC
[out] 4.40
